Test: solvent given as SMILES
Settings: in CC#N
assayReadout: log10(fluorescence lifetime) (log10 of the value in ns)
The common logarithm of fluorescence lifetime in ns is what is listed.

Sample Cn1c(-c2ccc(-c3nc(-c4ccccc4)c(-c4ccccc4)n3C)s2)nc(-c2ccccc2)c1-c1ccccc1 ; log10(fluorescence lifetime) observed: 0.09

Sample O=c1[nH]c(=O)n([C@@H]2O[C@H](CO)[C@@H](O)[C@H]2O)cc1-c1cc2ccccc2s1 ; log10(fluorescence lifetime) observed: -0.31

Sample CC(=O)c1ccc2ccc3cccc4ccc1c2c34 ; log10(fluorescence lifetime) observed: 0.98

Sample Cc1ccc(C2=C3C=C(I)C=[N+]3[B-](F)(F)n3cccc32)cc1 ; log10(fluorescence lifetime) observed: -1.22

Sample C=Cc1ccc(OC)cc1 ; log10(fluorescence lifetime) observed: 0.80

Sample O=c1[nH]c(=O)c2nc3ccccc3nc2[nH]1 ; log10(fluorescence lifetime) observed: -0.46

Sample c1ccc(-c2cc(-c3ccc4ccc5c(-c6ccnc(-c7ccccn7)c6)ccc6ccc3c4c65)ccn2)nc1 ; log10(fluorescence lifetime) observed: 0.34

Sample C[n+]1ccn(CCCCc2ccc3c(c2)c2ccccc2n3-c2cc(C#N)c(C#N)cc2F)c1 ; log10(fluorescence lifetime) observed: 0.51

Sample CC1(C)Nc2cc(Cl)ccc2-c2[nH]c3ccccc3c(=O)c21 ; log10(fluorescence lifetime) observed: 0.94

Sample NS(=O)(=O)c1ccc(N2N=C(c3ccc(O)cc3)CC2c2ccccc2)cc1 (configuration not stated) ; log10(fluorescence lifetime) observed: 0.38

Sample CN1CCCc2cc3c(C(F)(F)F)cc(=O)oc3cc21 ; log10(fluorescence lifetime) observed: 0.75

Sample Cc1cn(C(F)(F)F)c(=O)[nH]c1=O ; log10(fluorescence lifetime) observed: -4.00

Sample CC1=C(C(C)(C)C)C(C)=[N+]2C1=C(C)c1c(C)c(C(C)(C)C)c(C)n1[B-]2(F)F ; log10(fluorescence lifetime) observed: 0.63

Sample CN(C)c1ccc2c(c1)C(=O)NC2=O ; log10(fluorescence lifetime) observed: 0.59

Sample Nc1ccc2c3c(cccc13)C(=O)c1ccccc1-2 ; log10(fluorescence lifetime) observed: 0.77

Sample O=C1CCCc2c1[nH]c1cc3c(cc21)OCO3 ; log10(fluorescence lifetime) observed: -0.01

Sample CN(C)c1ccc(/C=C/C=C2\CC/C(=C\C=C\c3ccc(N(C)C)cc3)C2=O)cc1 ; log10(fluorescence lifetime) observed: -0.31

Sample CC(=O)O[B-]1(OC(C)=O)OC(/C=C/c2ccc(C)cc2)=CC(/C=C/c2ccc(C)cc2)=[O+]1 ; log10(fluorescence lifetime) observed: 0.09

Sample CNc1ccc(/C=C/C#N)cc1 ; log10(fluorescence lifetime) observed: -0.22

Sample C=Cc1cc2cc3c(cc2oc1=O)OCO3 ; log10(fluorescence lifetime) observed: 0.57

Sample Cc1cc(=O)oc2c1cc(Br)c1occ(C)c12 ; log10(fluorescence lifetime) observed: -1.36

Sample CCN(CC)c1ccc2cc(/C=C/c3ccccc3)c(=O)oc2c1 ; log10(fluorescence lifetime) observed: 0.35

Sample N#CC(C#N)=C(/C=C/c1cc2c3c(c1)CCCN3CCC2)c1ccc2c3c(cccc13)CC2 ; log10(fluorescence lifetime) observed: 0.42

Sample COC(=O)C(NC(=O)OC(C)(C)C)c1ccc2oc(-c3cc(OC)c(OC)cc3OC)nc2c1 (configuration not stated) ; log10(fluorescence lifetime) observed: 0.25

Sample C=Cc1cc2ccccc2oc1=O ; log10(fluorescence lifetime) observed: -0.41

Sample C[n+]1ccn(CCCCc2ccc3c(c2)c2ccccc2n3-c2cc(C#N)c(C#N)cc2-n2c3ccccc3c3cc(CCCCn4cc[n+](C)c4)ccc32)c1 ; log10(fluorescence lifetime) observed: 0.70

Sample Nc1ccc2c(c1)C(=O)N(C13C[C@H]4C[C@@H](C1)C[C@@H](C3)C4)C2=O ; log10(fluorescence lifetime) observed: 1.28

Sample COc1ccc(-c2nc(C(C)=O)c(C)o2)cc1 ; log10(fluorescence lifetime) observed: 0.59

Sample COC(=O)C(NC(=O)OC(C)(C)C)c1ccc2oc(-c3ccc(F)cc3)nc2c1 (configuration not stated) ; log10(fluorescence lifetime) observed: 0.17

Sample CC(=O)[B-]1(C(C)=O)OC(c2ccc3ccccc3c2)=CC(c2ccc3ccccc3c2)=[O+]1 ; log10(fluorescence lifetime) observed: 0.74

Sample O=CC12N=N[C@](C=O)(C3C4CCC(C4)C31)C1[C@@H]3CC[C@@H](C3)[C@H]12 (some centres not stated) ; log10(fluorescence lifetime) observed: 2.05

Sample O=Cc1ccc(C2=C3C=c4c(oc5ccccc45)=[N+]3[B-](F)(F)n3c2cc2c4ccccc4oc23)cc1 ; log10(fluorescence lifetime) observed: 0.38
